So I've got a bunch of molecules here, and I need their TGI values.
Tested on: HT29 colon
assay.explanation: NCI tumour cell line growth inhibition, 48 h
Entry rule: numbers only, all in µM.

Request: // TGI lookup, key: O=S1c2ccccc2N=C(c2ccc3ccccc3c2)CC1C1=CC=CCC1 (stereo unspecified)
Result: 31.4

Request: COc1cc(C2c3cc4c(cc3OC(NC3CCCCC3)C2C)OCO4)cc(OC)c1OC (stereo unspecified) , same question.
Result: 25.6

Request: `Cc1cc(C)nc(NS(=O)(=O)c2ccc(Nc3nncc(=O)n3N)cc2)n1` , same question.
Result: 32.2

Request: `CCC[CH2][Sn]1([CH2]CCC)[O]C(=O)c2cc(I)cc(I)c2[O]1` , same question.
Result: 4.21

Request: C/C=C(\C)C(=O)N[C@H]1CC[C@]2(C)C3CC[C@@]4(C)C(CC[C@@H]4C(C)N(C)C)C3CCC2[C@H]1OC(C)=O (stereo partly specified) , same question.
Result: 1.34

Request: `C=C1C(=O)O[C@@H]2C[C@@]3(C)CCC[C@H](C)C3=C[C@H]12` , same question.
Result: 16.1

Request: `c1ccc(Cn2cc3c(c2-c2ccccc2)CCc2cnoc2-3)cc1` , same question.
Result: 33.4

Request: `Cc1cc2c(cc1Cl)SC1=CC(=O)N(c3ccccc3)C1=NS2(=O)=O` , same question.
Result: 67.8

Request: `C/C=C/c1c(O)c(=O)c2c(OC)cc(OC)c3c4c(OC)cc(OC)c5c(=O)c(O)c(/C=C/C)c(c1c23)c54` , same question.
Result: 23.8

Request: COc1ccc(N2C(=O)C3c4[nH]c5ccccc5c4C4CCCCCCCCCCC4C3C2=O)cc1 (stereo unspecified) , same question.
Result: 18.9

---

System: RXF 393 renal
assay.explanation: NCI tumour cell line growth inhibition, 48 h; in the data active = GI50 below about 0.43 µM; inactive = the rest
Respond with a class label; see active, inactive

Request: Hey, what did the test say about `C=C1C(=O)O[C@H]2[C@H]1CC/C(COC(=O)CCCCC(=O)OC/C1=C/CC[C@@]3(C)O[C@H]3[C@H]3OC(=O)C(=C)[C@@H]3CC1)=C\CC[C@@]1(C)O[C@@H]21` ?
Result: inactive

Request: `COc1ccc(-c2[nH]c3ccccc3c2C=C(C#N)C#N)cc1` , same question.
Result: inactive

Request: O=S(=O)(O)O.[NH-]C1CCCCC1[NH-].[Pt+2] (configuration not stated) , same question.
Result: inactive

Request: `COc1ccc2c(c1)C(=O)/C(=C/c1cccc(OCC(=O)Nc3nc4c(s3)CCCC4)c1)O2` , same question.
Result: inactive

Request: `COC(=O)Nc1nc2ccc(Oc3ccc(NC(=O)Nc4cccc(C(=O)O)c4)cc3)cc2[nH]1` , same question.
Result: inactive

Request: `Oc1ccc(-c2nnc3sc(-c4ccc(F)c(Oc5ccccc5)c4)nn23)cc1` , same question.
Result: inactive

Request: CC(=O)N1N=C2/C(=C/c3ccccc3)CC(C)CC2C1c1ccccc1 (configuration not stated) , same question.
Result: inactive

Request: `O=c1c2cccc(Cl)c2sc2c(NCCCNCCO)nc3ccccc3c12` , same question.
Result: inactive

Request: `Cc1cc2c(cc1Cl)SC1=CC(=O)N(c3ccccc3)C1=NS2(=O)=O` , same question.
Result: inactive

Request: `C[n+]1c(/C=C\c2ccc(Cl)cc2)ccc2ccccc21` , same question.
Result: inactive

Request: `COc1cc(NS(C)(=O)=O)ccc1Nc1c2ccc(Cl)cc2nc2c(OC)cccc12` , same question.
Result: active

Request: `COc1cc(C(=O)c2ccc3c(c2)OCO3)cc(OC)c1OC` , same question.
Result: inactive
